assay: inhibition of PEG-3 promoter activity – cell-based, HeLa, luciferase luminescence, primary screen (AID 588405); settings: HeLa PEG-Prom luciferase reporter, overnight, at 20 µM, stronger effect = higher value
Hit rate of the full screen: of about 360,000 compounds, about 6,200 (1.7%) were called active. The list comes from a sample in which actives are over-represented; it also holds close analogues and randomly drawn compounds.
Give measured inhibition for each item. Keep answers brief.

Sample records with inhibition:
COC(=O)CNC(c1ccccc1Cl)c1cc(Br)ccc1NC(=O)CCN1CCOCC1 (stereo unspecified) : 20.5% (inactive)
COc1ccccc1-c1nn(Cc2ccccc2)cc1C(=O)N1CCN(c2ncccn2)CC1 : 33.2% (inactive)

For each listed entry, give its inhibition.
1. CN1C[C@@H](CO)O[C@@H](n2cnc3c(N4CCN(CCO)CC4)ncnc32)C1
2. CCOC(=O)Nc1ccc2c(c1)N(C(=O)CCN1CCN(CCO)CC1)c1ccccc1CC2
3. CCc1ccc(-c2cc3c(=O)n(CC(=O)NCCCN4CCN(Cc5ccccc5)CC4)nc(C)n3n2)cc1
4. Cc1ccc(-c2ccc(=O)n(CC(=O)NCCCN3CCCCC3)n2)cc1
5. CCc1nc2c(OCCOc3ccccc3)cccn2c1N(C)C(=O)c1ccc(OC)cc1
6. COc1ccc(CCCNC(=O)C2Cc3c(-c4cccc(C(N)=O)c4)ccnc3O2)cc1 (stereo unspecified)
7. O=C(NCc1cccnc1)c1cc(C2CCCN(C(=O)CCCc3ccccc3)C2)on1 (stereo unspecified)
8. CC1(C(=O)O)CCCN(C(=O)/C=C/c2ccccc2)C1 (stereo unspecified)

1: 8.41% (inactive); 2: 3.85% (inactive); 3: 105% (active); 4: 5% (inactive); 5: 11.8% (inactive); 6: 14.7% (inactive); 7: -7.2% (inactive); 8: 5.91% (inactive)

For each listed entry, give its inhibition.
1. COC(=O)c1c(C)[nH]c(C(=O)/C=C/c2ccc(Cl)cc2)c1C
2. CC1(C(=O)Nc2cccc(Oc3ccccc3)c2)CCN1Cc1ccccc1Cl (stereo unspecified)
3. CC(C)(C)CC(C)(C)NCC(O)COCCOc1ccc(Br)cc1 (stereo unspecified)
4. CCN1CCC(O)(/C=C/c2ccc(C)cc2)C(C(=O)/C=C/c2ccc(C)cc2)C1 (stereo unspecified)
5. CCc1ccc(OC2(C)CCN(CCOc3ccc(C)cc3)C2)cc1 (stereo unspecified)

1: -126% (inactive); 2: 18.7% (inactive); 3: 103% (active); 4: 97.7% (active); 5: 15.4% (inactive)

====

test: inhibition of PEG-3 promoter activity – cell-based, HeLa, luciferase luminescence, primary screen (AID 588405); details: HeLa PEG-Prom luciferase reporter, overnight, at 20 µM, stronger effect = higher value
Among all 360,000 compounds or so, about 6,200 (1.7%) were called active. The sample as a whole holds a higher share of actives than the screen did.
Give measured inhibition for each item. Keep answers brief.
One number for each entry, in %.

COc1ccc(-c2nnc3n2CCCCC3)cc1 : 11.4
CCOC(=O)N(C)c1c(CC)nc2c(OCc3ccccc3C(=O)OC)cccn12 : 13.4
CS/C(=C\C(=O)c1ccco1)Nc1ccccc1Cl : -49.5
Cc1ccc2c(Cl)c(C(=O)Nc3nn[nH]n3)sc2c1 : -5.87
Cc1cccc2nc(CSc3nc4[nH]ncc4c(=O)n3-c3cccc(Cl)c3)cc(=O)n12 : 38.6
O=C(Nc1ccccc1Cl)/C(Cl)=C(\Cl)S(=O)c1ccccc1 (configuration not stated) : 108
O=C(O)C#Cc1cccc2ccccc12 : 12.5
CN1CCc2ccccc2C1Cc1ccccc1NC(=O)c1sc2ccccc2c1Cl (configuration not stated) : -137
Cc1ccc(-c2ccc(/C=C(\C#N)C(N)=S)o2)c([N+](=O)[O-])c1 : -30.5
COc1cc(C(C(=O)NC2CCCC2)N(Cc2ccccc2)C(=O)c2snc(C(N)=O)c2N)ccc1O (configuration not stated) : -1.6

For each listed entry, give its inhibition.
1. O=c1c2sccc2nc(SCc2cc(=O)n3ccccc3n2)n1-c1ccc(Br)cc1
2. Nc1nc(NC(=O)/C=C/c2ccccc2)nn1-c1ccccc1
3. Cc1ccc(C(=O)NCC(=O)O)s1

1: 40.8; 2: -6.78; 3: 13.7
